Sourced from ChEMBL document CHEMBL1153007

Test system: Streptococcus pyogenes
ASSAY NAME: Antibacterial activity against Streptococcus pyogenes at 1000 ug/ml after 24 hrs by agar diffusion method
Format: functional
ASSAY SETUP: read-out: IZ
Classify by measured zone of inhibition at 1000 µg/mL: YES if it is equal to or exceeds 20 mm, NO if it is smaller.

Some solved entries appear below for comparison.
CC1(C)S[C@@H]2[C@H](NC(=O)[C@H](N)c3ccccc3)C(=O)N2[C@H]1C(=O)O YES
c1csc(-c2nc3ccccc3c3nc4ccccc4n23)c1 YES
c1ccc2c(c1)nc(-c1ccc(-c3nc4ccccc4c4nc5ccccc5n34)cc1)n1c3ccccc3nc21 NO
c1ccc2c(c1)nc(-c1ccc(-c3nc4ccccc4c4nc5ccccc5n34)s1)n1c3ccccc3nc21 YES
c1cc(-c2nc3ccccc3c3nc4ccccc4n23)nc(-c2nc3ccccc3c3nc4ccccc4n23)c1 YES
c1ccc(-c2nc3ccccc3c3nc4ccccc4n23)cc1 NO

Inquiry: Reported zone of inhibition at 1000 µg/mL at or above 20 mm? "c1ccc(-c2nc3ccccc3c3nc4ccccc4n23)nc1"
Reply text: YES

Inquiry: Is it the case that "c1cc(-c2nc3ccccc3c3nc4ccccc4n23)cc(-c2nc3ccccc3c3nc4ccccc4n23)c1" has zone of inhibition at 1000 µg/mL reaching or exceeding 20 mm?
Reply text: NO

Inquiry: Assess whether reported zone of inhibition at 1000 µg/mL for "c1coc(-c2nc3ccccc3c3nc4ccccc4n23)c1" sits at 20 mm or higher.
Reply text: NO

Inquiry: I'd appreciate it if you could say whether "c1ccc(-c2nc3ccccc3c3nc4ccccc4n23)c(-c2nc3ccccc3c3nc4ccccc4n23)c1" has zone of inhibition at 1000 µg/mL at least equal to 20 mm.
Reply text: NO

Inquiry: API: above_or_equal(metric=zone of inhibition at 1000 µg/mL, cutoff=20 mm) for item "c1c[nH]c(-c2nc3ccccc3c3nc4ccccc4n23)c1"
Reply text: NO

* * *

Tested on: Candida albicans
ASSAY NAME: Antifungal activity against Candida albicans at 1000 ug/ml after 72 hrs by agar diffusion method
Assay type: functional
ASSAY SETUP: read-out: IZ
MEASURED METRIC: zone of inhibition at 1000 µg/mL (mm)
Answers are plain numbers, in mm.

Take a look at these entries with their results.
MOLECULE	zone of inhibition at 1000 µg/mL (mm)
c1csc(-c2nc3ccccc3c3nc4ccccc4n23)c1	48
c1ccc2c(c1)nc(-c1ccc(-c3nc4ccccc4c4nc5ccccc5n34)cc1)n1c3ccccc3nc21	16
c1ccc(-c2nc3ccccc3c3nc4ccccc4n23)nc1	48
c1cc(-c2nc3ccccc3c3nc4ccccc4n23)nc(-c2nc3ccccc3c3nc4ccccc4n23)c1	50
c1ccc2c(c1)nc(-c1ccc(-c3nc4ccccc4c4nc5ccccc5n34)s1)n1c3ccccc3nc21	51
c1ccc(-c2nc3ccccc3c3nc4ccccc4n23)cc1	10

Hi team, please reply with zone of inhibition at 1000 µg/mL for each item in this list.
1. CC(=O)N1CCN(c2ccc(OCC3COC(Cn4ccnc4)(c4ccc(Cl)cc4Cl)O3)cc2)CC1 (stereo unspecified)
2. c1c[nH]c(-c2nc3ccccc3c3nc4ccccc4n23)c1
3. c1ccc(-c2nc3ccccc3c3nc4ccccc4n23)c(-c2nc3ccccc3c3nc4ccccc4n23)c1
4. c1coc(-c2nc3ccccc3c3nc4ccccc4n23)c1
5. c1cc(-c2nc3ccccc3c3nc4ccccc4n23)cc(-c2nc3ccccc3c3nc4ccccc4n23)c1

Reply text:
1. 40
2. 9
3. 13
4. 11
5. 15

* * *

Answer each item with its documented MIC.
Test system: Escherichia coli
ASSAY NAME: Antibacterial activity against Escherichia coli after 24 hrs by liquid dilution method
Format: functional
Answers are plain numbers, in µg/mL.

Worked examples follow.
c1ccc(-c2nc3ccccc3c3nc4ccccc4n23)nc1 15
c1ccc2c(c1)nc(-c1ccc(-c3nc4ccccc4c4nc5ccccc5n34)s1)n1c3ccccc3nc21 2.5
c1csc(-c2nc3ccccc3c3nc4ccccc4n23)c1 10
CC1(C)S[C@@H]2[C@H](NC(=O)[C@H](N)c3ccccc3)C(=O)N2[C@H]1C(=O)O 15

Could you now look at the following compound, please?
Inquiry: Give the reported value of MIC for this record: "c1cc(-c2nc3ccccc3c3nc4ccccc4n23)nc(-c2nc3ccccc3c3nc4ccccc4n23)c1"
Reply text: 5

* * *

Would you mind telling me the reported MIC of each entry?
System: Aspergillus niger
ASSAY NAME: Antifungal activity against Aspergillus niger after 24 hrs by liquid dilution method
Give bare numbers, in µg/mL.

Below, 3 compounds whose answers are already recorded.
c1ccc2c(c1)nc(-c1ccc(-c3nc4ccccc4c4nc5ccccc5n34)s1)n1c3ccccc3nc21 2.5
c1cc(-c2nc3ccccc3c3nc4ccccc4n23)nc(-c2nc3ccccc3c3nc4ccccc4n23)c1 2.5
c1ccc(-c2nc3ccccc3c3nc4ccccc4n23)nc1 10

Inquiry: Specify measured MIC for "c1csc(-c2nc3ccccc3c3nc4ccccc4n23)c1" .
Reply text: 5

* * *

Give MIC for every item shown.
System: Bacillus subtilis
ASSAY NAME: Antibacterial activity against Bacillus subtilis after 24 hrs by liquid dilution method
Assay type: functional

// each molecule listed below needs its MIC
1. c1ccc2c(c1)nc(-c1ccc(-c3nc4ccccc4c4nc5ccccc5n34)s1)n1c3ccccc3nc21
2. c1ccc(-c2nc3ccccc3c3nc4ccccc4n23)nc1
3. CC1(C)S[C@@H]2[C@H](NC(=O)[C@H](N)c3ccccc3)C(=O)N2[C@H]1C(=O)O [AMPICILLIN]
4. c1csc(-c2nc3ccccc3c3nc4ccccc4n23)c1
5. c1cc(-c2nc3ccccc3c3nc4ccccc4n23)nc(-c2nc3ccccc3c3nc4ccccc4n23)c1

Reply text:
["10 µg/mL", "20 µg/mL", "20 µg/mL", "15 µg/mL", "15 µg/mL"]
